Experiment: Single dose PK study in male Wister-Han rats
Type: in vivo
Details: male, Wister-Han, rat, plasma, po, 5 mg/kg, 5 mg/kg oral dosing of active form, 24 h
Procedure: The single dose PK in Male Wister-Han Rats was performed to assess pharmacokinetic properties of tested compounds. Two groups of animals were dosed via Gavage (POE) of the respective compound. […] The pharmacokinetic parameters were calculated using non-compartmental module of WinNonlin® Professional 6.2. The peak concentration (Cmax) was recorded directly from experimental observations. […]
QUANTITY_NAME: concentration at 24 h

In the examples that follow, each entry is paired with its recorded concentration at 24 h.
Exam item: Quick check: concentration at 24 h of CCS(=O)(=O)c1nc(N)c2[nH]c(=O)n(Cc3ccc(Cl)cc3)c2n1 [Example S-2, reference compound] ?
Marked response: 4.9 nM

Exam item: Quick check: concentration at 24 h of CCS(=N)(=O)c1nc(N)c2[nH]c(=O)n(Cc3ccc(F)cc3)c2n1 (single isomer, unassigned) [Compound 45e-A] ?
Marked response: 8.6 nM

Next up:
Exam item: Quick check: concentration at 24 h of CC[S@](=N)(=O)c1nc(N)c2[nH]c(=O)n(Cc3ccc(Cl)cc3)c2n1 (single isomer, unassigned) [Compound 41c-A] ?
Marked response: 5.6 nM
